measured.on: Human LBAT (Homo sapiens)
Construct: cultured under Geneticin selection
Sequence (Q14973 whole entry): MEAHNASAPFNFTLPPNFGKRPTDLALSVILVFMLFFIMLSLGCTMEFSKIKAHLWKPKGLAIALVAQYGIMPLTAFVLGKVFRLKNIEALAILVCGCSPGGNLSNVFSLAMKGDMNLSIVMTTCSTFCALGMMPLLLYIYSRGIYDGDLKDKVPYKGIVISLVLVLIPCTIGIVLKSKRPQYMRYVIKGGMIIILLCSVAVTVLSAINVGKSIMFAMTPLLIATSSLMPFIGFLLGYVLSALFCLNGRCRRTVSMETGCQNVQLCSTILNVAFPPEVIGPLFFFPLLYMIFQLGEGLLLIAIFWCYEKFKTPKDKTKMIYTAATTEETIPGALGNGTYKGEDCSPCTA
assay.summary: LBAT (h/m) assay, human LBAT-overexpressing cells, 3H-taurocholic acid uptake
measurement.parameters: read-out: hLBAT IC50
Categories are assigned from the measured IC50 using these intervals: bucket 1 = under 300 nM, bucket 2 = from 300 nM up to 2000 nM, bucket 3 = 2000 nM and over

Before answering, review these 2 worked examples.
compound	measured.on	label.value
CCCCC1(CC)CN(c2ccc(F)cc2)c2cc(SC)c(OCC(C)(C)C(=O)O)cc2S(=O)(=O)C1 (single isomer, unassigned) [5, enantiomer 2]	Human LBAT (Homo sapiens)	bucket 1
CCCCC1(CC)CN(c2ccc(F)cc2)c2cc(SC)c(OCC3(C(=O)O)CC3)cc2S(=O)(=O)C1 (single isomer, unassigned) [3, enantiomer 2]	Human LBAT (Homo sapiens)	bucket 2

Please indicate the class for CCCCC1(CCCC)CN(c2ccc(F)cc2)c2cc(SC)c(OCC(OC)C(=O)O)cc2S(=O)(=O)C1 (stereo not shown) [Example 9] based on its IC50.
bucket 3

---

assay.summary: Bidirectional permeability assay (Caco-2 cells)
Type: in vitro ADME
measurement.parameters: human, pH 7.4, Caco-2, absorptive direction (A2B)
readout.name: Papp A→B at 120 min, 10 µM (×10⁻⁶ cm/s)
Give bare numbers, in ×10⁻⁶ cm/s.

response.value for CCCCC1(C)CN(c2ccc(F)cc2)c2cc(SC)c(OCC(O)C(=O)O)cc2S(=O)(=O)C1 (single isomer, unassigned) [1, diastereomer 1] (field: Papp A→B at 120 min, 10 µM) = 2.2

---

measured.on: Human IBAT (Homo sapiens, UniProt Q12908)
Construct: cultured under Puromycin selection
Sequence (Q12908 whole entry): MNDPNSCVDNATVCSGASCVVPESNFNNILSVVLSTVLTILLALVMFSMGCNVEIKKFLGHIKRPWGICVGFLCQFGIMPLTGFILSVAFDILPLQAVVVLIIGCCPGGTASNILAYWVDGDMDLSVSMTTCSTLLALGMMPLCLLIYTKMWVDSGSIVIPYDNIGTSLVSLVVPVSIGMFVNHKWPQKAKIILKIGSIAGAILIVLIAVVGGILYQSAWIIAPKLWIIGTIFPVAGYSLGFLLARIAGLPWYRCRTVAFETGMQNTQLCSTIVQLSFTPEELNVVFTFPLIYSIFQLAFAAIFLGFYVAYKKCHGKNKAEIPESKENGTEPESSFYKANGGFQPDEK
assay.summary: IBAT (h/m) assay, human IBAT-overexpressing cells, 3H-taurocholic acid uptake
measurement.parameters: read-out: hIBAT IC50
readout.name: pIC50
Give bare numbers, as −log10 of the molar value.

compound	measured.on	pIC50
CCCCC1(CC)CN(c2ccc(F)cc2)c2cc(SC)c(OCC3(C(=O)O)CC3)cc2S(=O)(=O)C1 (racemic) [Example 2]	Human IBAT (Homo sapiens, UniProt Q12908)	7.96

Provide the reported pIC50 of each entry below, same order.
1. CCCCC1(CC)CN(c2ccc(F)cc2)c2cc(SC)c(OCC(C)(C)C(=O)O)cc2S(=O)(=O)C1 (racemic) [Example 4]
2. CCCCC1(C)CN(c2ccc(F)cc2)c2cc(SC)c(OCC(O)C(=O)O)cc2S(=O)(=O)C1 (single isomer, unassigned) [1, diastereomer 1]
3. CCCCC1(CCCC)CN(c2ccc(F)cc2)c2cc(SC)c(OCC(OC)C(=O)O)cc2S(=O)(=O)C1 (single isomer, unassigned) [10, enantiomer 2]
4. CCCCC1(CCCC)CN(c2ccccc2)c2cc(SC)c(OCC(OCC)C(=O)O)cc2S(=O)(=O)C1 (stereo not shown)

[7.43, 9.00, 8.40, 8.52]

Provide the reported pIC50 of each entry below, same order.
1. CCCCC1(C)CN(c2ccc(F)cc2)c2cc(SC)c(OCC(O)C(=O)O)cc2S(=O)(=O)C1 (single isomer, unassigned) [1, diastereomer 4]
2. CCCCC1(CCCC)CN(c2ccc(F)cc2)c2cc(SC)c(OCC(OC)C(=O)O)cc2S(=O)(=O)C1 (single isomer, unassigned) [10, enantiomer 1]
3. CCCCC1(C)CN(c2ccc(F)cc2)c2cc(SC)c(OCC(O)C(=O)O)cc2S(=O)(=O)C1 (single isomer, unassigned) [1, diastereomer 2]
4. CCCC1(CCC)CN(c2ccccc2)c2cc(SC)c(OCC(O)C(=O)O)cc2S(=O)(=O)C1 (stereo not shown)
5. CCCCC1(CC)CN(c2ccc(F)cc2)c2cc(SC)c(OCC(OC)C(=O)O)cc2S(=O)(=O)C1 (stereo not shown)

[6.91, 7.40, 8.70, 7.52, 8.40]

These entries and their values trace back to patent US11377429B2.
